Subject of test: SNX27, Q96L92
Experiment: holdup assay
Parameters: key: below the threshold = too weak to quantify, mostly under pKd 3.1 to 4
Reported conditions: plain residues with an end cap or a label only (N-terminal biotin on a linker: ado-ado)
Assay readout: pKd
Just the number, please, no unit after it.

Binder: ADEMICITTL [CACNA1D, Q01668]
Value reported: 5.51

Could you share which pKd value was measured for QKASRNESTF [POLR1D, P0DPB6] ?
4.29

Could you share which pKd value was measured for QLKSGRDSTV [TMEM178A, Q8NBL3] ?
4.01

Could you share which pKd value was measured for NTALVESEDL [PALLS, Q8WX93;Q8WX93-1] ?
4.38

Could you share which pKd value was measured for THREVKFTSL [CD46, P15529] ?
4.35

Could you share which pKd value was measured for PLATCDETSI [SEMA4F, O95754] ?
5.26

Could you share which pKd value was measured for LLQEEWETVM [PTH1R, Q03431] ?
5.65

Could you share which pKd value was measured for VYEVPVETKF [SLC26A3, P40879] ?
5.33
